- Experimental system: Hck (UniProt P08631)
- Sequence (P08631 whole entry, looked up): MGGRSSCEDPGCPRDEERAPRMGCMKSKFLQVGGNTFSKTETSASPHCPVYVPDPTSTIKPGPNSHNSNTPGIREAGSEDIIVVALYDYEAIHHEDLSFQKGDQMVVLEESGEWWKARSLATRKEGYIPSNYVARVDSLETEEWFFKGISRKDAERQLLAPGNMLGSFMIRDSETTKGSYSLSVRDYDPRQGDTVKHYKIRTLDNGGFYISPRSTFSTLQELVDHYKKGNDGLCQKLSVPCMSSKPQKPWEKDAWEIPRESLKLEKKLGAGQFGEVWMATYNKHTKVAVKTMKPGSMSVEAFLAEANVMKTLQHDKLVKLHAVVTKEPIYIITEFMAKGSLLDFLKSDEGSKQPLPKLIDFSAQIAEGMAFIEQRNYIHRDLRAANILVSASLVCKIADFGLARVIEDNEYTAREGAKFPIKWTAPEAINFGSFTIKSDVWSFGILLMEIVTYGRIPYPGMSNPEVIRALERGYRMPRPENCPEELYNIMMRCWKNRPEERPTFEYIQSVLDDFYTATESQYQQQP
- Experimental protocol: phosphorylation enrichment, bacterial display (enrichment ratio); higher = better substrate or ligand; peptides without Tyr show the background;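 further: 11-residue human phosphosite peptides and single-mutation variants displayed on the E. coli surface, counted by deep sequencing, each peptide's frequency after selection divided by its frequency in the unselected input library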;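 further: frequency after pTyr selection over input frequency; kinase dosed for 20-30% of maximal phosphorylation in three min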
Everything with phosphorylation enrichment lower than 0.7 is False; everything else, including exactly 0.7, is True.

Please review the entries below; each comes with its answer.
State whether the measured phosphorylation enrichment reaches 0.7, counting equality as reaching it, for KLIMEYLPYGS [JAK2_Y931] False

Textbook exercise: given the entry QTEAEYRFIYM [PTPN11_Y511_Q510E] , state whether its phosphorylation enrichment is greater than or equal to 0.7. True

Is the recorded value of phosphorylation enrichment equal to or greater than 0.7 for this sequence? QQLQGYVPSNF [FRK_Y99_I100V_YF] True

***
Please indicate if the recorded phosphorylation enrichment for FDGKDYIALKE [HLA-A_Y147_N151K_YF] meets or exceeds 0.7. False

I'd appreciate it if you could say whether FDEFRYRSVIK [CFTR_Y517_YF] has phosphorylation enrichment at least equal to 0.7. False

Please indicate if the recorded phosphorylation enrichment for KMKGDYYRYLA [YWHAG_Y130] meets or exceeds 0.7. True

Decide: is the reported value of phosphorylation enrichment for VLALWYYYLTN [ZDHHC23_Y127_H132N] equal to or greater than 0.7? True

Can FSTPPYLLEAA [BRIP1_Y921_S919P_YF] be said to have phosphorylation enrichment at or above 0.7? False

Could you verify whether the entry FCVVRYCWLRR [MPZ_Y181_Y177C] shows phosphorylation enrichment of no less than 0.7? False

Exam item: decide whether the reported phosphorylation enrichment for SYCYRYRCAAW [SUMF1_Y344_R349W] is at least 0.7. False

Textbook exercise: given the entry RKGGSYTQAAS [HLA-A_Y344] , state whether its phosphorylation enrichment is greater than or equal to 0.7. False

Is reported phosphorylation enrichment greater than or equal to 0.7 here: LRRREYQRQDF [PRKRIP1_Y90_YF] False

hey, is phosphorylation enrichment for this one >= 0.7? GARGRYIMGGP [TNK1_Y277_V278I] False

Given EAAFVYAISSA [WNT4_Y113] , state whether its phosphorylation enrichment is at least 0.7. True

Does SAGSSYSISVI [PAX5_Y179_G183V] have a reported phosphorylation enrichment of at least 0.7? False

src = the supplement of paper PMC10065799
